# Tested on: HEK293
# measurement.description: Cytotoxicity against human HEK293 cells after 24 hrs by MTT assay
# Format: cell-based
# experimental.setup: HEK293, 24 h
Quick rule for you: IC50 under 70 µM gets label 1, anything else gets label 0.

compound | class.name
CCCCCc1cn(C/C=C2\OC(=O)C(OCc3ccccc3)=C2OCc2ccccc2)nn1 | label 0

Identify whether the compound `COC1=C(OC)/C(=C/Cn2cc(-c3ccc(C(C)(C)C)cc3)nn2)OC1=O` records IC50 below 70 µM.
label 0

Identify whether the compound `CCCCc1cn(C/C=C2\OC(=O)C(OCc3ccccc3)=C2OCc2ccccc2)nn1` records IC50 below 70 µM.
label 0
